Test system: H1703 (PDGFRa amp)
Assay: In vitro growth inhibition of H1703 tumor cells (MTT/CCK8)
Type: cell-based, Human
Details: Homo sapiens, NCI-H1703; in vitro growth inhibition (or induction of apoptosis), cells cultured 3 to 5 days, MTT (CCK8); read-out: IC50 H1703 (PDGFRa amp)
measurement-label: IC50 (nM)

a = COCCOc1cc2nccc(Oc3ccc(NC(=O)Nc4cc(C(C)(C)C)n[nH]4)c(Cl)c3)c2cc1C(N)=O
b = COc1cc2nccc(Oc3ccc(NC(=O)Nc4cc(C(C)(C)C)on4)cc3Cl)c2cc1C(N)=O
c = COc1cc2nccc(Oc3ccc(NC(=O)Nc4cc(C(C)(C)C)n[nH]4)cc3Cl)c2cc1C(N)=O
d = COc1cc2nccc(Nc3ccc(NC(=O)Nc4cc(C(C)(C)C)on4)cc3)c2cc1C(N)=O
Task for the reader: rank each entry by its IC50, from the minimum upward. Return the labels ranked in the requested order, please. a, b, c, d

a = COc1cc2nccc(Oc3ccc(NC(=O)Nc4cc(C(C)(C)C)on4)cc3F)c2cc1C(N)=O
b = COc1cc2nccc(Oc3ccc(NC(=O)Nc4cc(C(C)(C)C)n[nH]4)c(Cl)c3)c2cc1NC(C)=O
Select the item whose IC50 value is smaller, choosing between a and b . Response format: the label of the selected entry. b

###

Tested on: KATO III (FGFR2 amp)
Assay: In vitro growth inhibition of KATO III tumor cells (MTT/CCK8)
Assay type: cell-based, Human
Conditions: Homo sapiens, KATO III; in vitro growth inhibition (or induction of apoptosis), cells cultured 3 to 5 days, MTT (CCK8); read-out: IC50 KATO III (FGFR2 amp)
pIC50: −log10 of the molar value.
measurement-label: pIC50

Examples with their reported pIC50 follow.
Kindly state the measured pIC50 obtained for `C=CC(=O)Nc1cc2c(Oc3ccc(NC(=O)Nc4cc(C(C)(C)C)on4)c(Cl)c3)ccnc2cc1OC` with KATO III (FGFR2 amp). 8.07

Find pIC50 (KATO III (FGFR2 amp)) for the entry `CNC(=O)c1cc2c(Oc3ccc(NC(=O)Nc4cc(C(C)(C)C)no4)c(Cl)c3)ccnc2cc1OC` 8.87

Record lookup: for KATO III (FGFR2 amp), what pIC50 belongs to `CC(C)CN1CCN(CCCOc2cc3nccc(Oc4ccc(NC(=O)Nc5cc(C(C)(C)C)n[nH]5)c(Cl)c4)c3cc2C(N)=O)CC1` ? 8.95

Lab request: please report pIC50 under test system KATO III (FGFR2 amp) for `CCn1nc(C(C)(C)C)cc1NC(=O)Nc1ccc(Oc2ccnc3cc(OC)c(C(=O)NC)cc23)cc1Cl` 9.14

Which pIC50 is reported with KATO III (FGFR2 amp) for this entry: `COCCOc1cc2nccc(Oc3ccc(NC(=O)Nc4cc(C(C)(C)C)n[nH]4)c(C)c3)c2cc1NC(C)=O` ? 8.81

P = COCCOc1cc2nccc(Oc3ccc(NC(=O)Nc4cc(C(C)(C)C)nn4C4CCNCC4)cc3)c2cc1NC(C)=O
Q = COCCOc1cc2nccc(Oc3ccc(NC(=O)Nc4cc(C(C)(C)C)nn4C)cc3)c2cc1NC(C)=O
R = CNC(=O)c1cc2c(Oc3ccc(NC(=O)Nc4cc(C(C)(C)C)n[nH]4)c(Cl)c3)ccnc2cc1OCCOC
S = COCCOc1cc2nccc(Oc3ccc(NC(=O)Nc4cc(C(C)(C)C)n[nH]4)c(Cl)c3)c2cc1NC(C)=O
T = CNC(=O)c1cc2c(Oc3ccc(NC(=O)Nc4cc(C(C)(C)C)n[nH]4)cc3C)ccnc2cc1OC
Arrange the 5 entries by pIC50 so the values rise. Please respond with the labels ordered as the question requires. P, T, R, Q, S

P = COc1cc2nccc(Oc3ccc(NC(=O)Nc4cc(C(C)(C)C)n[nH]4)cn3)c2cc1NC(C)=O
Q = CC(=O)Nc1cc2c(Oc3ccc(NC(=O)Nc4cc(C(C)(C)C)n[nH]4)c(Cl)c3)ccnc2cc1OCCN1CCOCC1
Higher pIC50: P or Q ? Your choice should be expressed through its label. Q
(Q: 8.87, P: 7.40)

###

System: Kasumi-1 (KIT N822K)
Test: In vitro growth inhibition of Kasumi-1 tumor cells (MTT/CCK8)
Format: cell-based, Human
Conditions: Homo sapiens, Kasumi 1; in vitro growth inhibition (or induction of apoptosis), cells cultured 3 to 5 days, MTT (CCK8); read-out: IC50 Kasumi-1 (KIT N822K)
pIC50: −log10 of the molar value.
measurement-label: pIC50

Give the measured pIC50 of COc1cc2nccc(Oc3ccc(NC(=O)Nc4cc(C(C)(C)C)on4)c(C)c3)c2cc1C(N)=O [Compound 6] . 7.58

Entry CNC(=O)c1cc2c(Oc3ccc(NC(=O)Nc4cc(C(C)(C)C)nn4C)c(Cl)c3)ccnc2cc1OCCOC [Compound 59] has what pIC50? 8.71

Data request, read-out pIC50, for CNC(=O)c1cc2c(Oc3ccc(NC(=O)Nc4cc(C(C)(C)C)nn4C)cc3Cl)ccnc2cc1OC [Compound 55] 7.04

Any idea what pIC50 was measured for CC(C)(C)c1cc(NC(=O)Nc2ccc(Oc3ccnc4cc(OCCCN5CCN(c6ccccc6)CC5)c(C(N)=O)cc34)cc2Cl)[nH]n1 [Compound 86] ? 7.12

Return reported pIC50; argument: CC(C)(C)c1cc(NC(=O)Nc2ccc(Oc3ccnc4cc(OCCCN5CCN(CC6CCCCC6)CC5)c(C(N)=O)cc34)cc2Cl)[nH]n1 [Compound 90] 8.02

Recorded pIC50 for COc1cc2nccc(Oc3ccc(NC(=O)Nc4cc(C(C)(C)C)n[nH]4)cc3F)c2cc1NC(C)=O [Compound 102] , please? 7.01

What measured pIC50 goes with CCC(=O)Nc1cc2c(Oc3ccc(NC(=O)Nc4cc(C(C)(C)C)on4)c(Cl)c3)ccnc2cc1OC [Compound 21] ? 7.05

# get_value(readout='pIC50', item= C=CC(=O)Nc1cc2c(Oc3ccc(NC(=O)Nc4cc(C(C)(C)C)on4)c(Cl)c3)ccnc2cc1OC [Compound 22] ) 7.04

Recorded pIC50 for COc1cc(Oc2ccnc3cc(OC)c(C(N)=O)cc23)ccc1NC(=O)Nc1cc(C(C)(C)C)on1 [Compound 5] , please? 7.89

Sample CNC(=O)c1cc2c(Oc3ccc(NC(=O)Nc4cc(C(C)(C)C)nn4C)cc3C)ccnc2cc1OC [Compound 53] — what was its pIC50? 7.75

1 = COc1cc2nccc(Oc3ccc(NC(=O)Nc4cc(C(C)(C)C)n[nH]4)cc3C)c2cc1C(N)=O [Compound 35]
2 = COc1cc2nccc(Oc3ccc(NC(=O)Nc4cc(C(C)(C)C)nn4C)c(C)c3C)c2cc1C(N)=O [Compound 110]
Please compare: 1 and 2 . Report which one has the smaller pIC50 value. Label of pick, please. 1
(1: 8.14, 2: 9.39)

###

Test system: KATO III (FGFR2 amp)
Experiment: In vitro growth inhibition of KATO III tumor cells (MTT/CCK8)
Assay type: cell-based, Human
Conditions: Homo sapiens, KATO III; in vitro growth inhibition (or induction of apoptosis), cells cultured 3 to 5 days, MTT (CCK8); read-out: IC50 KATO III (FGFR2 amp)
measurement-label: IC50 (nM)

Look over these answered cases.
Entry under review: `COc1cc2nccc(Oc3ccc(NC(=O)Nc4cc(C(C)(C)C)on4)c(Cl)c3)c2cc1C#N` . Reported IC50? 46.8

Using the record for `CNC(=O)c1cc2c(Oc3ccc(NC(=O)Nc4cc(C(C)(C)C)nn4C)cc3Cl)ccnc2cc1OC` , report its IC50. 2.96

A = COc1cc2nccc(Oc3ccc(NC(=O)Nc4cc(C(C)(C)C)n[nH]4)cn3)c2cc1C(N)=O
B = COc1cc2nccc(Oc3ccc(NC(=O)Nc4cc(C(C)(C)C)n[nH]4)cc3Cl)c2cc1C(N)=O
C = CCn1nc(C(C)(C)C)cc1NC(=O)Nc1ccc(Oc2ccnc3cc(OC)c(C(N)=O)cc23)cc1Cl
D = COc1cc2nccc(Oc3ccc(NC(=O)Nc4cc(C(C)(C)C)n[nH]4)c(C(F)(F)F)c3)c2cc1C(N)=O
E = CNC(=O)c1cc2c(Oc3ccc(NC(=O)Nc4cc(C(C)(C)C)n[nH]4)cc3Cl)ccnc2cc1OC
List items by IC50 in falling order. To answer, arrange all of the labels according to the requested order. A, E, B, D, C

###

Tested on: H1703 (PDGFRa amp)
Test: In vitro growth inhibition of H1703 tumor cells (MTT/CCK8)
Type: cell-based, Human
Settings: Homo sapiens, NCI-H1703; in vitro growth inhibition (or induction of apoptosis), cells cultured 3 to 5 days, MTT (CCK8); read-out: IC50 H1703 (PDGFRa amp)
measurement-label: IC50 (nM)

Worked examples follow.
Requested read-out IC50, target or system H1703 (PDGFRa amp), entry `CC(C)(C)c1cc(NC(=O)Nc2ccc(Oc3ccnc4c(F)cccc34)cc2Cl)no1` 568

For the record `CNC(=O)c1cc2c(Oc3ccc(NC(=O)Nc4cc(C(C)(C)C)no4)c(Cl)c3)ccnc2cc1OC` , what value of IC50 is listed for H1703 (PDGFRa amp)? 12.9

// map `COCCOc1cc2nccc(Oc3ccc(NC(=O)Nc4cc(C(C)(C)C)nn4C)c(Cl)c3)c2cc1C(N)=O` to recorded IC50 (system: H1703 (PDGFRa amp)) 6.49

a = COc1cc2nccc(Oc3ccc(NC(=O)Nc4cc(C(C)(C)C)nn4CCO)c(Cl)c3)c2cc1C(N)=O
b = COc1cc2nccc(Oc3ccc(NC(=O)Nc4cc(C(C)(C)C)on4)c(C)c3)c2cc1C(N)=O
Compare a and b and name the one whose reported IC50 is smaller. Your answer should be the label of the entry you select. b

a = CN(C)CCOc1cc2nccc(Oc3ccc(NC(=O)Nc4cc(C(C)(C)C)n[nH]4)c(Cl)c3Cl)c2cc1C(N)=O
b = COc1cc2nccc(Oc3ccc(NC(=O)Nc4cc(C(C)(C)C)on4)c(C(F)(F)F)c3)c2cc1C(N)=O
c = COc1cc2nccc(Oc3ccc(NC(=O)Nc4cc(C(C)(C)C)on4)c(Cl)c3)c2cc1NC(=O)C1CCCC1
d = COc1cc2nccc(Oc3ccc(NC(=O)Nc4cc(C(C)(C)C)nn4C)c(C)c3C)c2cc1C(N)=O
# sort list by recorded IC50, greatest to least Arrange the labels as the request states and list them. c, a, d, b
(c: 420 nM, a: 79.3 nM, d: 46.1 nM, b: 21.8 nM)

P = COc1cc2nccc(Oc3ccc(NC(=O)Nc4cc(C(C)(C)C)n[nH]4)c(Cl)c3)c2cc1C(=O)N(C)C
Q = CNC(=O)c1cc2c(Oc3ccc(NC(=O)Nc4cc(C(C)(C)C)nn4C)c(Cl)c3Cl)ccnc2cc1OC
Field: lower recorded IC50 (choose P or Q ) Pick one; state its label. Q
(Q: 11.7 nM, P: 75.8 nM)
